test: physchem; details: aqueous with cosolvent or surfactant or cyclodextrin, Solubility (MW) with Tego SMO 80V
Readout label: solubility (mg/mL)
Please state the figure in mg/mL; there is no need to write the unit.

GET /value?item= O=C(C=Cc1ccccc1)OCCc1ccccc1 [Phenethyl cinnamate, phenethyl cinnamate] &field=solubility returns 2.5

GET /value?item= CCOC(=O)C=Cc1ccccc1 [Ethyl cinnamate, ethyl cinnamate] &field=solubility returns 96.4

###

What solubility was measured for each of the following?
test: physchem; details: aqueous with cosolvent or surfactant or cyclodextrin, Solubility (MW) with Speziol TPGS
Please state the figure in mg/mL; there is no need to write the unit.

GET /value?item= O=C(C=Cc1ccccc1)OCCc1ccccc1 [Phenethyl cinnamate, phenethyl cinnamate] &field=solubility returns 2.6

GET /value?item= CCOC(=O)C=Cc1ccccc1 [Ethyl cinnamate, ethyl cinnamate] &field=solubility returns 42.3
